- Test system: NCI-H460 lung
Reply using exactly one outcome from t (active), f (inactive)

Recorded results for 4 compounds are shown here.
COc1ccc(-c2cc3c(N)ncnc3o2)cc1 = f
COC(=O)CCc1c(/C=C2\N=C(c3ccc[nH]3)C=C2OC)[nH]c(C)c1C(=O)OCc1ccccc1 = f
COc1ccc(-c2c(C#N)cnc(N)c2-c2nc3cc(C)c(C)cc3[nH]2)cc1 = f
COC(=O)C1=C(O)C(C(=O)OC)[C@@]2(O)[C@@H](C(=O)OC)C(c3ccccc3Cl)C[C@@H]1[C@@H]2C(=O)OC (stereo not given in full) = f

--- query ---
Exercise: Would you mind telling me which call this test gave COc1ccc2c(c1)C(=O)c1c-2n(CCCNCCO)c(=O)c2cc([N+](=O)[O-])ccc12 ?
Key: t

###

- Test system: SF-539 CNS
- EXPERIMENT_DESCRIPTION: NCI tumour cell line growth inhibition, 48 h
Numbered stars: 1 amine (or outer) side, 2 acyl side, 3 side chain; on linkers, the order of the positions; unused ones are H or OH. Bridge positions count the residues as written; N and C are the ends. Square brackets hold non-standard residues; d marks the D form. Peptide text beside a SMILES is read from it. I, II: the chains in the order shown. Actinocin(1to9) = Cc1c2oc3c(C)ccc(C(=O)[*:2])c3nc-2c(C(=O)[*:1])c(N)c1=O; NMeV = CN[CH](C(=O)O)C(C)C; Sar = CNCC(=O)O
Listed next: entries and their corresponding TGI.
Please respond with the number in µM and leave the unit unwritten.

// worked examples, TGI included
COc1ccc(-c2c(C#N)cnc(N)c2-c2nc3cc(C)c(C)cc3[nH]2)cc1 = 41.9
COc1cc2c3c(n(CCCN4CCN(CCO)CC4)c(=O)c2cc1OC)-c1cc2c(cc1C3=O)OCO2 = 6.3

Continue with the next molecule.
Exercise: Would you kindly share the measured TGI for CCC(C)C1NC(=O)C(NC(=O)c2c3nc4c(C(=O)NC5C(=O)NC(C(C)C)C(=O)N6CCCC6C(=O)N(C)CC(=O)N(C)C(C(C)C)C(=O)OC5C)ccc(C)c4oc-3c(C)c(=O)c2N)C(C)OC(=O)C(C(C)C)N(C)C(=O)CN(C)C(=O)C2CCCN2C1=O (configuration not stated) (I: TIP[Sar][NMeV] / II: TVP[Sar][NMeV]; ester I:1-I:C, II:1-II:C; linker I:N-II:N via Actinocin(1to9); configuration not given here) ?
Key: 0.107

###

- Tested on: SF-295 CNS
- EXPERIMENT_DESCRIPTION: NCI tumour cell line growth inhibition, 48 h
METRIC: TGI

COC(=O)c1c(OC(C)=O)ccc2c1c1cc3ccccc3c(OC(C)=O)c1n2C = > 100 µM

Exercise: Would you kindly share the measured TGI for CC(=O)O[C@@H]1CN(S(=O)(=O)c2ccc(C)cc2)C[C@@H]1C1CCCCC1 ?
Key: > 100 µM

Exercise: Query OCC(O)C(OC1OC(CO)C(O)C(O)C1O)c1nn(-c2ccc(Cl)cc2)c2nc3cc(Cl)ccc3nc12 (stereo not drawn) next
Key: > 100 µM

Exercise: Query CCCCCCCCC(=O)NCCN(CCN)C(=O)CCCCCCCC next
Key: 10.5 µM

###

Listed next: entries and their corresponding GI50.
- Test system: UACC-62 melanoma
- EXPERIMENT_DESCRIPTION: NCI tumour cell line growth inhibition, 48 h

// worked examples, GI50 included
COn1cc(C(=O)N=C(SC)SC)c2ccccc21 = 20.2 µM
C[C@H](c1ccc(Cl)cc1[N+](=O)[O-])N1C(=O)c2cc(I)ccc2NC(=O)[C@H]1c1ccc(Cl)cc1 = > 100 µM

Exercise: API: value(readout= GI50, system= UACC-62 melanoma, query= CCN1C(=O)N(CC)C2C1NN=c1s/c(=C\c3cnc(C)n3C)c(=O)n12 (stereo not given) )
Key: 1.14 µM

Exercise: Query CCCCCCCCCCCCCCCC(N)c1ccccc1 (stereo not given) next
Key: 1.66 µM

Exercise: Query COc1ccc(-c2c(C#N)cnc(N)c2-c2nc3cc(C)c(C)cc3[nH]2)cc1 next
Key: 7.22 µM

Exercise: Query CCC(=O)Oc1ccc(/C=N/NC(N)=S)nc1 next
Key: 3.43 µM
